meta.source: patent US8889874B2

For each record, write down the corresponding GI50.
# Tested on: SW-620 (colon)
# measurement.notes: NCI anticancer screen, SRB assay, 48 h
# Format: cell-based, human
# condition.info: Homo sapiens, 48 h exposure, SRB, read-out: GI50
Write it as a number; the unit µM goes unstated.

Prompt line: Fill in: GI50 of O=C(/C=C/c1cccc(O)c1)c1cccc(-n2cc(-c3ccc(Cl)cc3)[nH]c2=O)c1 is ___
Response line: 1.62

Prompt line: Fill in: GI50 of COc1cc(/C=C/C(=O)c2cccc(-n3cc(-c4ccc(Cl)cc4)[nH]c3=O)c2)ccc1O is ___
Response line: 2

Prompt line: Fill in: GI50 of O=C(/C=C/c1cccc(O)c1)c1cccc(-n2cc(-c3ccc4ccccc4c3)[nH]c2=O)c1 [12b] is ___
Response line: 0.22

Prompt line: Fill in: GI50 of COc1ccc(-c2cn(-c3cccc(C(=O)/C=C/c4ccc(O)c(OC)c4)c3)c(=O)[nH]2)cc1 is ___
Response line: 2.5

* * *

# System: LOX IMVI (melanoma)
# measurement.notes: NCI anticancer screen, SRB assay, 48 h
# Assay type: cell-based, human
# condition.info: Homo sapiens, read-out: pGI50 (-log of molar concentration causing 50% inhibition of net cell growth) (converted)
# Description: Some of biological activity studies were carried out at the National Cancer Institute (NCI), Maryland, USA. The compounds were evaluated for anticancer activity against fifty three human cancer cells derived from nine cancer types (leukemia cell line, non-small-cell lung cell line, colon cell line, CNS cell line, melanoma cell line, ovarian cell line, prostate cell line, and breast cancer cell line) as shown in Table 1. […]
For each record, write down the corresponding GI50.
Write it as a number; the unit µM goes unstated.

Prompt line: Fill in: GI50 of COc1cc(/C=C/C(=O)c2cccc(-n3cc(-c4cc(OC)c(OC)c(OC)c4)[nH]c3=O)c2)cc(OC)c1OC is ___
Response line: 1.23

Prompt line: Fill in: GI50 of O=C(/C=C/c1cccc(O)c1)c1cccc(-n2cc(-c3ccccc3)[nH]c2=O)c1 is ___
Response line: 1.86

Prompt line: Fill in: GI50 of COc1cc(/C=C/C(=O)c2cccc(-n3cc(-c4ccc(Cl)cc4)[nH]c3=O)c2)ccc1O is ___
Response line: 1.62

Prompt line: Fill in: GI50 of COc1cc(/C=C/C(=O)c2cccc(-n3cc(-c4ccccc4)[nH]c3=O)c2)ccc1O is ___
Response line: 1.86

* * *

# Test system: HOP-62 (non-small cell lung)
# measurement.notes: NCI anticancer screen, SRB assay, 48 h
# Format: cell-based, human
# condition.info: Homo sapiens, read-out: pGI50 (-log of molar concentration causing 50% inhibition of net cell growth) (converted)
Lab note: anything with GI50 below 4000 nM is marked t; values at 4000 nM or higher are marked f.

Prompt line: Hello, is GI50 of the following molecule strictly smaller than 4000 nM? COc1cc(/C=C/C(=O)c2cccc(-n3cc(-c4ccccc4)[nH]c3=O)c2)ccc1O
Response line: t

Prompt line: Hello, is GI50 of the following molecule strictly smaller than 4000 nM? O=C(/C=C/c1cccc(O)c1)c1cccc(-n2cc(-c3ccc(Cl)cc3)[nH]c2=O)c1
Response line: t

Prompt line: Hello, is GI50 of the following molecule strictly smaller than 4000 nM? COc1cc(/C=C/C(=O)c2cccc(-n3cc(-c4ccc(Cl)cc4)[nH]c3=O)c2)ccc1O
Response line: t

Prompt line: Hello, is GI50 of the following molecule strictly smaller than 4000 nM? COc1cc(/C=C/C(=O)c2cccc(-n3cc(-c4cc(OC)c(OC)c(OC)c4)[nH]c3=O)c2)cc(OC)c1OC
Response line: t

Prompt line: Hello, is GI50 of the following molecule strictly smaller than 4000 nM? COc1ccc(-c2cn(-c3cccc(C(=O)/C=C/c4ccc(O)c(OC)c4)c3)c(=O)[nH]2)cc1
Response line: f

Prompt line: Hello, is GI50 of the following molecule strictly smaller than 4000 nM? O=C(/C=C/c1cccc(O)c1)c1cccc(-n2cc(-c3ccc4ccccc4c3)[nH]c2=O)c1 [12b]
Response line: t

Prompt line: Hello, is GI50 of the following molecule strictly smaller than 4000 nM? O=C(/C=C/c1cccc(O)c1)c1cccc(-n2cc(-c3ccccc3)[nH]c2=O)c1
Response line: f
